Would you mind telling me the reported z-score of each entry?
Biological target: NADPH oxidase 4 (Homo sapiens) (UniProt Q9NPH5)
Sequence (Q9NPH5 whole entry, looked up): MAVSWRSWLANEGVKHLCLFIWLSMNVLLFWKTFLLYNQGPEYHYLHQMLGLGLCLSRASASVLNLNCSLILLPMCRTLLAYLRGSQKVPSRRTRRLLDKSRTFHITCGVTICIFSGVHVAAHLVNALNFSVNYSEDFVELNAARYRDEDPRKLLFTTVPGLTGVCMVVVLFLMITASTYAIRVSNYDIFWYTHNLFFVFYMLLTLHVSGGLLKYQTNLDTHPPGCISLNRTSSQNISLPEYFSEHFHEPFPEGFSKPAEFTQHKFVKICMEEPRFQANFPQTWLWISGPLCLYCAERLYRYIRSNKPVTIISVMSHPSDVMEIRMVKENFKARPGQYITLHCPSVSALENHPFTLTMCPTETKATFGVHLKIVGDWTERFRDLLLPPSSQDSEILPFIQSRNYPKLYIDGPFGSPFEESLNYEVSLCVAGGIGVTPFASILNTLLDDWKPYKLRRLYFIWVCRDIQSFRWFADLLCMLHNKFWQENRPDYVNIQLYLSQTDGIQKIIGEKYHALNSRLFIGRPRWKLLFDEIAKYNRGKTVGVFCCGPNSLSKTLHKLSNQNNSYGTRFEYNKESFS
Experiment: NOX4-dependent H2O2 signal modulators, primary screen, NOX inhibitor project, cell-based, HEK293-NOX4, tetracycline-induced, Amplex Red fluorescence (AID 1160)
Conditions: 45 min, higher = more signal, called active from +8 up or from −8 down
Numbers only.

Examples from the recorded data:
NCCCCCCNC(=O)[C@H]1C[C@H]2C(=O)N[C@@H](Cc3ccccc3)C(=O)N2[C@H]1c1ccc(O)cc1; 1.38
C=C[C@H](COC(C)=O)NS(=O)(=O)c1ccc(Br)cc1; -0.0653
CC(C)CNC(=O)[C@@]1(c2ccc([N+](=O)[O-])cc2)CC(=O)N(C2CCCCC2)[C@@H]1c1ccc(CO)cc1I; 0.486

Hi team, please reply with z-score for each item in this list.
1. O=C1NC(=O)C2C1C=CC(C(O)c1c(F)cccc1Cl)N2Nc1ccccn1 (stereo not given)
2. O=C1c2ccccc2[C@](Cc2ccccc2I)(C(=O)NCc2ccccc2)[C@H](c2ccc(CO)cc2)N1C1CCCCC1
3. C=CCOC(=O)[C@@H]1[C@H]2C(=O)O[C@H](c3ccccc3)[C@H](c3ccccc3)N2[C@H](c2ccc(OCCOC(=O)[C@H]3C[C@H]4C(=O)N[C@@H](CCCC[N+](C)(C)C)C(=O)N4[C@H]3c3ccc(O)cc3)cc2)[C@@]12C(=O)Nc1ccc(I)cc12
4. O=C1OCCC=C[C@H]2OC34C=CCN(c5ccc(Cl)cc5)C(=O)[C@H]3N(CCCCCO)C(=O)[C@@H]4C12 (stereo not given in full)

**A:**
1. -3
2. 0.289
3. 1.06
4. 0.747

I would be grateful if you could provide z-score for each of the following entries.
1. [N-]=[N+]=Nc1ccccc1[C@@H]1OC(c2ccc(OCCCO)cc2)=N[C@]1(CCS(=O)(=O)c1ccccc1)C(=O)NCCN1CCOCC1
2. O=C1OCC=C[C@H]2OC34C=CCN(Cn5nnc6ccccc65)C(=O)[C@H]3N(CCCCCCO)C(=O)[C@@H]4[C@@H]12 (stereo not given in full)

**A:**
1: -0.729; 2: -0.17

Dear reader, for each entry below, please note its z-score.
1. CCCNC(=O)[C@@]1(c2ccc([N+](=O)[O-])cc2)CC(=O)N(C2CCCCC2)[C@@H]1c1ccc(CO)cc1I
2. O=C(O)[C@]1(Cc2ccccc2)N=C(c2ccc(OCCCO)cc2)O[C@@H]1c1ccccc1
3. CCCCC(=C=CC[C@@H](O)c1ccc(OCCO)cc1)C[C@@H](O)COCc1ccccc1

**A:**
1. 0.187
2. 0.674
3. -0.61

For every item in the list below, what is its measured z-score?
1. COC(=O)[C@@]1(Cc2ccccc2)[C@H]2c3cc(C(=O)N4CCCC4)n(C[C@H](O)CO)c3C[C@H]2CN1C(=O)c1ccccc1
2. COc1ccccc1CN1C(=O)c2ccccc2[C@](Cc2ccccc2I)(C(=O)NC(C)C)[C@@H]1c1ccc(CO)cc1
3. C=CCC(OC(C)=O)[C@@H]1[C@@H](N(Cc2cc3ccccc3o2)C(=O)Cc2ccc(F)cc2)c2cc(OCCCO)ccc2N1C(=O)c1ccc2ccccc2n1 (stereo not given in full)

**A:**
-0.303
0.143
0.642
